# tested_target: Human COX I (Homo sapiens, UniProt P23219)
# Sequence (P23219 24-599): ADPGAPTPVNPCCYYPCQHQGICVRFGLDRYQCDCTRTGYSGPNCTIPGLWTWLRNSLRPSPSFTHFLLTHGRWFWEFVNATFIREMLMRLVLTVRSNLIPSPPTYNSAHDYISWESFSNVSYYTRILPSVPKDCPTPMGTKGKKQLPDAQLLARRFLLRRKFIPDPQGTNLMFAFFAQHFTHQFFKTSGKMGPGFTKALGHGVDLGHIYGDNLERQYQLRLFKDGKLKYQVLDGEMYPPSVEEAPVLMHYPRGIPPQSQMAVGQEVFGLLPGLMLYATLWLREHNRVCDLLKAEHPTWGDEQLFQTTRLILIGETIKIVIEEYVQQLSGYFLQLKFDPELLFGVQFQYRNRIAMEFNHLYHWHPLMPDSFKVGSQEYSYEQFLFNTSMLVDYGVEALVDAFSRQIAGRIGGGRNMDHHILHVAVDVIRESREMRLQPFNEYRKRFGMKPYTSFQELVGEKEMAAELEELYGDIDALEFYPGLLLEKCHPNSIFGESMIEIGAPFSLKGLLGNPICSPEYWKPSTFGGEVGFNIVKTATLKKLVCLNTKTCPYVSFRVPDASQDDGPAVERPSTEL
attribute_measured: pIC50
Kindly note that pIC50 refers to -log10 of the concentration in mol/L and answer with the value alone.

IN: Any idea what pIC50 came out for CC(C)Cc1nn(-c2ccc(S(N)(=O)=O)cc2)c(-c2ccccc2)c1Cl on Human COX I (Homo sapiens, UniProt P23219)?
OUT: 5.68

====

We begin with a simple list: items and their reported inhibition in vivo at 10 mg/kg.
# Tested on: carrageenan-induced foot edema
# assay_summary: Rat Carrageenan Foot Pad Edema Test
# Assay type: in vivo, male Sprague-Dawley rats
# measurement_parameters: Rattus norvegicus, po, 3 h, read-out: RAT PAW EDEMA % Inhibition
Provide only the numeric value, understood in %.

>>> print(df.to_string())
                                   compound                   tested_target  unit  experimental_value
0  Cc1ccc(-c2cc(C(F)(F)F)nn2-c2ccc(S(N)(=O)=O)cc2)cc1 [Example 2]  carrageenan-induced foot edema     %                  35
1  NS(=O)(=O)c1ccc(-n2nc(CO)cc2-c2ccc(Cl)cc2)cc1 [Example 171]  carrageenan-induced foot edema     %                  14

IN: # inhibition in vivo at 10 mg/kg lookup, item NS(=O)(=O)c1ccc(-n2nc(C(F)(F)F)c(Cl)c2-c2ccc(Cl)cc2)cc1 [Example 199]
OUT: 35

IN: // lookup inhibition in vivo at 10 mg/kg for NS(=O)(=O)c1ccc(-n2nc(C(F)(F)F)cc2-c2ccc(Cl)cc2)cc1 [Example 1]
OUT: 44

IN: Tell me the measured inhibition in vivo at 10 mg/kg of NS(=O)(=O)c1ccc(-n2nc(C(F)F)cc2-c2ccc(Cl)cc2)cc1 [Example 58] , please.
OUT: 36

IN: inhibition in vivo at 10 mg/kg for COc1ccc(-c2cc(C(F)F)nn2-c2ccc(S(N)(=O)=O)cc2)cc1F [Example 59] ?
OUT: 25

IN: // returns reported inhibition in vivo at 10 mg/kg for input N#Cc1cc(-c2ccc(F)cc2)n(-c2ccc(S(N)(=O)=O)cc2)n1 [Example 117]
OUT: 32

IN: Need inhibition in vivo at 10 mg/kg, item COc1ccc(-c2cc(C(F)F)nn2-c2ccc(S(N)(=O)=O)cc2)cc1 [Example 60]
OUT: 49

====

# Test system: carrageenan-induced foot edema
# assay_summary: Rat Carrageenan Foot Pad Edema Test
# Assay type: in vivo, male Sprague-Dawley rats
# measurement_parameters: 3 h; *Assay performed at 30 mg/kg body weight, oral, rat; read-out: RAT PAW EDEMA % Inhibition
# if value of inhibition in vivo at 30 mg/kg reaches 20%, tag 1 (yes); if it stays below, tag 0 (no)

In [3]: df
Out[3]:
                              line_notation                   tested_target  assigned_label
0  NS(=O)(=O)c1ccc(-n2nc(C(=O)Nc3cccc(Cl)c3)cc2-c2ccc(F)cc2)cc1  carrageenan-induced foot edema          0 (no)
1  NS(=O)(=O)c1ccc(-n2nc(C(F)(F)Cl)cc2-c2ccc(Cl)cc2)cc1  carrageenan-induced foot edema         1 (yes)
2  NS(=O)(=O)c1ccc(-n2nc(C(F)F)cc2C2CCCCC2)cc1  carrageenan-induced foot edema          0 (no)
3  NS(=O)(=O)c1ccc(-n2ncc(Cl)c2-c2ccc(Cl)cc2)cc1  carrageenan-induced foot edema         1 (yes)

IN: Decide: inhibition in vivo at 30 mg/kg of NS(=O)(=O)c1ccc(-n2nc(C(F)F)cc2-c2ccc3c(c2)OCO3)cc1 >= 20%?
OUT: 1 (yes)

IN: Hello, I need to know if CCOC(=O)c1cc(-c2ccc(Cl)cc2)n(-c2ccc(S(N)(=O)=O)cc2)n1 has measured inhibition in vivo at 30 mg/kg not below 20%. Thanks!
OUT: 1 (yes)
